Protocol Summary: Plasma toxicokinetics after single i.v. bolus
Type: in vivo, Sprague-Dawley rats
Recorded Conditions: both sexes, Sprague-Dawley, iv; rat plasma; single i.v. 1.0 mg/kg; M + F

Compound	Endpoint Unit	half-life
C1=CCC(c2cccnc2)NC1 (racemic) [Anatabine, 1,2,3,6-tetrahydro-[2,3′]bipyridinyl]	h	1.64

* * *

Protocol Summary: Plasma pharmacokinetics after oral multi-dose anatabine polacrilex
Assay type: in vivo, Sprague-Dawley rats
Recorded Conditions: Sprague-Dawley, rat, plasma, oral, 2 mg/kg BW; dose group 2, female, 60 min, mean

Compound	concentration at 60 min / ng/mL
C1=CCC(c2cccnc2)NC1 (racemic) [Anatabine, 1,2,3,6-tetrahydro-[2,3′]bipyridinyl]	129
